# System: DMS-273
# assay-comment: NCI tumour cell line growth inhibition, 48 h
Active and inactive are the calls of the source. Rule as the data show it: active = GI50 up to about 1.1 µM and inactive = higher.
parameter: GI50

> print(dat)
                                   compound       recorded.value
1  CSCCC(C(=O)O)N(CC1(O)OCC(O)C(O)C1O)N=O (stereo not given)  > 100 µM (inactive)

**Q:** Can you look up the measured GI50 of N#Cc1c(CC(=O)O)cc(=O)n2c1[nH]c1ccccc12 for me?
**A:** > 100 µM (inactive)

**Q:** // GI50 lookup, key: COc1ccc(C2S/C(=C\c3cc(OC)c(OC)c(OC)c3)C(=O)N2NC(=O)Cc2ccccc2)cc1 (stereo not given)
**A:** > 100 µM (inactive)

====

# Tested on: SK-MEL-5
# assay-comment: NCI tumour cell line growth inhibition, 48 h
Calls of active or inactive are those of the source. Rule as the data show it: active = GI50 up to about 1.1 µM and inactive = higher.
Use one of these outcomes when replying: y for active, n for inactive

> print(dat)
                                   molecule  cat
1  O=C1C2=C(C(=O)c3c(O)ccc(O)c31)[C@@H](O)[C@@H](O)[C@@H](O)C2    n
2  [N-]=[N+]=Nc1c(Cc2ccccc2)c(=O)oc2ccccc12    n
3  O=C1C=CC=C/C1=C1/SC(c2ccccc2)=C(O)N1c1ccccc1    n

**Q:** // outcome(item) with item = CC1C(c2ccc3c(c2)OCO3)c2cc3c(cc2OC1N1CCCC1)OCO3 (stereo unspecified)
**A:** n

**Q:** Which outcome was entered for the molecule O=c1n(N=[S+]([O-])(c2ccccc2)c2ccccc2)c(=O)n2n1C1C=CC2CC1 in this test?
**A:** n

**Q:** What call does the record list for FC(F)(F)c1cccc(-c2nc3nc(Cl)c(Cl)nc3[nH]2)c1 ?
**A:** y

====

# System: IGROV-1
# assay-comment: NCI tumour cell line growth inhibition, 48 h
Active and inactive are the calls of the source. Rule as the data show it: active = GI50 up to about 1.1 µM and inactive = higher.
Your response should consist of one outcome taken from 1 for active, 0 for inactive

These recorded examples may help you get a feel for the data.
> print(dat)
                                   molecule  cat
1  CCCCCCCCCCCOCCC1C(C(C)OCCN2CCCC2)OC2OC(C)(C)OC21 (stereo not given)    0
2  CCOC1OC(COC(=O)C(C)(C)C)C(O)CC1n1cc(C)c(=O)[nH]c1=O (stereo not given)    0
3  COc1cc(C(=O)NC2CCc3cc(OC)c(OC)c(OC)c3-c3ccc(OC)c(=O)cc32)cc(OC)c1OC (stereo not given)    1
4            Nc1ccc(-c2nc3ccc(F)cc3s2)cc1Cl    1

Turning now to a further record.
**Q:** Please indicate how the test categorized COc1cc([C@@H]2c3cc4c(cc3[C@@H](Nc3ccc(Cl)cc3C(=O)c3ccccc3)[C@H]3COC(=O)[C@H]23)OCO4)cc(OC)c1OC .
**A:** 1

====

# System: U-251
# assay-comment: NCI tumour cell line growth inhibition, 48 h
Calls of active or inactive are those of the source. No stated cut-off is given here; in the data, active = GI50 up to about 1.1 µM and inactive = higher.
parameter: GI50

Answered cases to consult:
compound	recorded-value
O=C(c1ccc(Cl)cc1)c1ccc(OCC(=O)N2CCN(c3ccccc3)CC2)cc1	> 100 µM (inactive)
O=C(/C=C\c1ccccc1)N1CCc2ccccc2C1	80.7 µM (inactive)
Cc1c(C(=O)C(=O)c2ccccc2)c(C)c(C(=O)C(=O)c2ccccc2)c(C)c1C(=O)C(=O)c1ccccc1	> 100 µM (inactive)
Oc1cccc2cc(Cl)cnc12	9.08 µM (inactive)
C/C(=C1\N=C(c2ccccc2)OC1=O)c1ccccc1	> 100 µM (inactive)

**Q:** # GI50 lookup, item Nc1c(-c2ccc(-c3c(N)[n+]([O-])c4ccccc4[n+]3[O-])cc2)[n+]([O-])c2ccccc2[n+]1[O-]
**A:** 14.7 µM (inactive)

**Q:** Any idea what its GI50 is? The compound is Cc1cc2c(cc1C)C(=O)c1ncccc1C2=O
**A:** 35.7 µM (inactive)

**Q:** State the recorded GI50 for this entry: COC1(OC)C2(Cl)CCC1(Cl)C(OC(C)=O)C2 (stereo unspecified)
**A:** > 100 µM (inactive)

**Q:** Can you look up the measured GI50 of Cc1cc2c(cc1C)[n+]([O-])c(-c1c(Cl)cccc1Cl)c(N)[n+]2[O-] for me?
**A:** 33.3 µM (inactive)

**Q:** Fill in the blank: the reported GI50 of COC(=O)C1=C(C(=O)OC)N(C(C)C)[C@H]2C(C(=O)OC)=C(C(=O)OC)N(C(C)C)[C@@H]12 is ____.
**A:** > 100 µM (inactive)

**Q:** Name the recorded GI50 for CCOC1NC(=O)Oc2cc3ccccc3cc21 (stereo unspecified) .
**A:** 36.1 µM (inactive)

Attribution: ChEMBL document CHEMBL1201862
